- Tested on: CT26 colon adenocarcinoma
- assay.info: Growth inhibition of footpad CT26 colon adenocarcinoma in CB6F1 mice, second series (FIGS. 2 and 3)
- Format: in vivo, mouse
- condition.notes: CB6F1 mice; in words
assay.metric: Anticancer activities against established footpad CT26 colon adenocarcinoma

- compound: "O=P(O)(O)O [inorganic phosphate, reference compound]"
  assay.result: "without such effects"
- compound: "Nc1ncnc2c1ncn2[C@@H]1O[C@H](CO)[C@@H](O)[C@H]1O"
  assay.result: "without such effects"
- compound: "O=P(O)(O)OP(=O)(O)O [inorganic pyrophosphate, reference compound]"
  assay.result: "without such effects"

Values from patent US5049372A
